Some molecules, each annotated with its measured GI50.
Test system: ACHN
Procedure Summary: NCI tumour cell line growth inhibition, 48 h
The source made the active and inactive calls. No stated cut-off is given here; in the data, active = GI50 up to about 1.1 µM and inactive = higher.

INSERT INTO results (molecule, experimental_system, endpoint_value) VALUES
  ('COc1cc(Nc2nnc3n2S(=O)(=O)c2cc(C)c(Cl)cc2S3)cc(OC)c1', 'ACHN', '5.21 µM (inactive)'),
  ('CC(C)(C)c1ccc2c(c1)C(=O)c1ccccc1C2=O', 'ACHN', '37.9 µM (inactive)'),
  ('O=C1C(=CNC(=S)c2ccccc2)C(=O)c2ccccc21', 'ACHN', '38.9 µM (inactive)'),
  ('CCOP(=O)(Nc1ccc2oc(=O)c3ccccc3c2c1)OCC', 'ACHN', '33.2 µM (inactive)'),
  ('Cn1c(=O)ccc2c(=O)c3ccccc3oc21', 'ACHN', '> 100 µM (inactive)');

Request: Give ACHN GI50 for COc1cc2c(cc1OC)C(C#N)(Cc1ccccc1)N(C(=O)c1ccccc1)C=C2 (stereo unspecified)
Result: 82.8 µM (inactive)

* * *

System: MOLT-4
Procedure Summary: NCI tumour cell line growth inhibition, 48 h
The source made the active and inactive calls. No stated cut-off is given here; in the data, active = GI50 up to about 1.1 µM and inactive = higher.
Observation Type: GI50

INSERT INTO results (compound, endpoint_value) VALUES
  ('CN/N=C(/C=C/c1ccccc1)C(C)C', '> 100 µM (inactive)'),
  ('CC1(C)C(=O)/C=C\C(=O)C(C)(C)C2=CC=C(O2)C(C)(C)C(=O)C(Br)C(Br)C(=O)C(C)(C)C2=CC=C1O2 (stereo not given)', '3.3 µM (inactive)'),
  ('C=C1CN(C(=O)c2cc3cc(OC)c(OC)c(OC)c3[nH]2)c2cc([N+](=O)[O-])ccc21', '69.3 µM (inactive)'),
  ('S=C1CC(c2ccccc2)Sc2cc(Cl)ccc2N1 (stereo not given)', '1.51 µM (inactive)');

Request: Which GI50 is listed for O=C(/C=C/c1ccccc1F)C(c1ccccc1)c1ccccc1 ?
Result: 1.24 µM (inactive)

* * *

Tested on: CCRF-CEM
Procedure Summary: NCI tumour cell line growth inhibition, 48 h
Active and inactive are the calls of the source. Cut-off read from the data, not from the text of the source: active = GI50 up to about 1.1 µM and inactive = higher.
Assign a class; possible classes are True (active), False (inactive)

INSERT INTO assay_data (compound, discrete_label) VALUES
  ('CC(C)CCCC(C)[C@H]1CC[C@H]2N/C(=N/Cc3ccccc3)CCC[C@]12C (some centres not stated)', 'False'),
  ('O=C1C=CC2(O[C@@H](Cc3ccccc3)[C@H](Cc3ccccc3)O2)C(SC(=O)c2ccccc2)C1 (some centres not stated)', 'True'),
  ('CC(NC(=O)c1c(O)[nH]c(=S)[nH]c1=O)c1ccc([N+](=O)[O-])cc1 (configuration not stated)', 'False'),
  ('O=C(O)c1cc2ccccc2c(Cc2c(O)c(C(=O)O)cc3ccccc23)c1O', 'False');

Request: Outcome? COc1cc(Cc2nccc3cc(OC)c(OC)cc23)c(/N=N/N(C)C)cc1OC
Result: False

Request: Outcome? C=CCNC(=O)ON1C(=O)CCC1=O
Result: False

Request: Outcome? c1ccc(C2(c3ccccc3)SSC3(S2)C2CC4CC(C2)CC3C4)cc1 (configuration not stated)
Result: False

Request: Outcome? Cc1ccnc2c1c(=O)c1ccccc1n2C
Result: False

Request: Outcome? CN(C)c1ccc(N=O)c(O)c1.CN(C)c1ccc(N=O)c(O)c1.[SiH4]
Result: False

Request: Outcome? CC(C)NC(=O)OCc1c(COC(=O)NC(C)C)n(C)c2c1ccc1ccccc12
Result: True

* * *

System: SN12C
Procedure Summary: NCI tumour cell line growth inhibition, 48 h
Activity calls are given as the source filed them. No stated cut-off is given here; in the data, active = GI50 up to about 1.1 µM and inactive = higher.
Assign a class; possible classes are Yes for active, No for inactive

Worked cases, answers included:
INSERT INTO assay_data (molecule, discrete_label) VALUES
  ('O=C(O)c1ccccc1/C=C1/Cc2ccc3c(c2C1=O)CCC3', 'No'),
  ('CC1(CCOCc2ccccc2)NC(=O)NC1=O (configuration not stated)', 'No'),
  ('C1CCNCC1.S=C(S)N1CCCCC1', 'No');

Request: Outcome? CCOC(=O)c1ccc(C(=O)/C(C#N)=C2\CCCN2C)[nH]1
Result: No

Request: Outcome? CC1(CCc2ccccc2)CC1(Br)Br (configuration not stated)
Result: No

Request: Outcome? COc1ccc(/C=C2\N=C3NC(=O)C(N4CCOCC4)=C(N)N3C2=O)cc1
Result: No

Request: Outcome? CCOC(=O)C(CCc1ncnc2c1ncn2Cc1ccccc1)(CCc1ncnc2c1ncn2Cc1ccccc1)C(=O)OCC
Result: No

Request: Outcome? O=C1c2ccccc2C2(O)c3cc4ccccc4cc3OC12O (configuration not stated)
Result: No

Request: Outcome? O=S(=O)(O)C(c1ccccc1)C(O)c1ccccc1 (configuration not stated)
Result: No

Request: Outcome? O=C1CC2(CCC(O)(c3ccco3)C(C(=O)c3ccco3)C2)C(=O)c2ccccc2N1 (configuration not stated)
Result: No

Request: Outcome? CCOC(=O)Nc1ccc(S(=O)(=O)I)cc1.CCOC(=O)Nc1ccc(S(=O)(=O)I)cc1.CNC(=O)N=O.NC(=O)OCCCl
Result: No

Request: Outcome? CCOC(=O)C(=O)/C(=C/n1c(=S)[nH]c2ccc([N+](=O)[O-])cc21)C(=O)OCC
Result: No

Request: Outcome? COc1ccc(N2C(=O)CSC2c2cc3cc(Br)ccc3nc2Cl)cc1 (configuration not stated)
Result: No

Request: Outcome? CCCCCCCCCCCC(=O)OCCOCCOCCOCCOCCOCc1ccc(OC)cc1
Result: No

Request: Outcome? N#Cc1c(-c2ccc(Cl)cc2)c2c(n(C3OC(CO)C(O)C(O)C3O)c1=S)CCCC2 (configuration not stated)
Result: No

Request: Outcome? CC1N(C)C(=O)OC12CCN(CCCC(=O)c1ccc(F)cc1)CC2 (configuration not stated)
Result: No

Request: Outcome? O=C(CSc1nc2ccc(I)cc2c(=O)n1Cc1ccccc1)NN1C(=O)c2ccccc2C1=O
Result: No

Request: Outcome? O=C(CC(Cl)(Cl)C(Cl)(Cl)Cl)c1ccccc1
Result: Yes

Request: Outcome? CN(C)C(=O)NC(=S)N(C)C
Result: No

Request: Outcome? CCSC(SCC)c1cc2c(cc1Br)OCO2
Result: No

Request: Outcome? COc1ccc2c(c1C)C(=O)C(O)(CC=C(C)C)O2 (configuration not stated)
Result: No

Request: Outcome? COc1cc(C2SCCCCCCCCCCSC(c3ccc(O)c(OC)c3)SCCCCCCCCCCS2)ccc1O (configuration not stated)
Result: No

* * *

Tested on: SN12C
Procedure Summary: NCI tumour cell line growth inhibition, 48 h
Active and inactive are the calls of the source. Rule as the data show it: active = GI50 up to about 1.1 µM and inactive = higher.
Assign a class; possible classes are label 1 = active, label 0 = inactive

Worked cases, answers included:
INSERT INTO results (compound, discrete_label) VALUES
  ('NC(c1ccccc1)(C(F)(F)F)P1(=O)OC(=O)c2ccccc2O1 (configuration not stated)', 'label 0'),
  ('C[Si](C)(C)/C=C\CCO', 'label 0'),
  ('COc1ccc(/C(CC2OC(=O)c3ccccc32)=N\NC(N)=O)cc1 (configuration not stated)', 'label 0');

Request: Outcome? OCCCc1cnco1
Result: label 0

Request: Outcome? N#C/C(=C\c1ccccc1F)C(=O)c1ccccc1
Result: label 0

* * *

Test system: NCI-H23
Procedure Summary: NCI tumour cell line growth inhibition, 48 h
The source made the active and inactive calls. No stated cut-off is given here; in the data, active = GI50 up to about 1.1 µM and inactive = higher.
Some compounds, each annotated with its measured GI50.

INSERT INTO results (compound, observation_type, endpoint_value) VALUES
  ('Nc1ccc(C(=O)NN2C(=O)C(Cl)C2c2ccccc2)cc1 (stereo unspecified)', 'GI50', '> 100 µM (inactive)'),
  ('NC(c1ccccc1)(C(F)(F)F)P1(=O)OC(=O)c2ccccc2O1 (stereo unspecified)', 'GI50', '> 100 µM (inactive)'),
  ('C=C1CN(C(=O)c2cc3cc(OC)c(OC)c(OC)c3[nH]2)c2cc([N+](=O)[O-])ccc21', 'GI50', '65 µM (inactive)'),
  ('CC1(C)OB(O)OC1(C)C', 'GI50', '> 100 µM (inactive)'),
  ('Cc1sc2ncnc(NCCc3ccccc3)c2c1C', 'GI50', '10.9 µM (inactive)'),
  ('CN1CC[C@]2(C)c3ccc(O)cc3CC3CCCC1C32C (stereo partly specified)', 'GI50', '> 100 µM (inactive)'),
  ('COCCOC(C)C(=O)C(O)S(=O)(=O)O (stereo unspecified)', 'GI50', '> 100 µM (inactive)'),
  ('O=C(NN1C(=O)C(Cl)C1c1cccc([N+](=O)[O-])c1)c1ccccc1O (stereo unspecified)', 'GI50', '> 100 µM (inactive)'),
  ('CN1CCN(Cn2nc(COc3ccccc3Cl)n(/N=C/c3ccc(-c4ccc(Cl)cc4Cl)o3)c2=S)CC1', 'GI50', '17.9 µM (inactive)'),
  ('CC(=O)NC(CCCCNC(=O)OCc1ccccc1)C(=O)NCc1ccccc1 (stereo unspecified)', 'GI50', '> 100 µM (inactive)');

Consider the record given below.
Request: Give NCI-H23 GI50 for CC(C)CCCC(C)[C@H]1CC[C@H]2N/C(=N/Cc3ccccc3)CCC[C@]12C (stereo partly specified)
Result: 2.23 µM (inactive)
